Test system: Trypanosoma cruzi
PROCEDURE_SUMMARY: Trypanosoma cruzi phosphomannomutase and mannose-1-phosphate guanylyltransferase assay
Format: functional
Set-up: scale not given: direction of the effect not stated beside the values
SETTINGS: 10 µM
MEASURED_PROPERTY: Percent Effect (%)
# value in %; strip the unit string

Previously resolved entries follow.
>  <MOLECULE>
O=C(Cn1cccnc1=O)NC(Cc1cccs1)c1ccccn1 (stereo unspecified)

>  <Percent Effect, %>
2.57

$$$$
>  <MOLECULE>
CCOc1ccc(-n2nnc(C(=O)O)c2-c2ccncc2)cc1

>  <Percent Effect, %>
0.292

$$$$
>  <MOLECULE>
N#CC1(C(=O)Nc2ccc(OC(F)F)cc2)CCCC1

>  <Percent Effect, %>
0.68

$$$$
>  <MOLECULE>
CCc1nccc(CN2CCCC(c3nn(C)c(=O)n3CC)C2)n1 (stereo unspecified)

>  <Percent Effect, %>
2.64

$$$$
>  <MOLECULE>
Cc1occc1C(=O)N1CCC[C@]2(C[C@@H](OCc3ccncc3)CO2)C1

>  <Percent Effect, %>
-1.16

$$$$

Could you now look at the following molecule, please?
Request: Query: Percent Effect; subject: COc1cc(NC(=O)c2ccccc2F)c(C(=O)N(C)C)cc1OC
Response: -7.96
